Target: rat brain FAAH (Rattus norvegicus, UniProt P97612)
Construct: the racemate was studied in rat brain homogenates, whereas mouse brain homogenates were used here; from tissue; host or cells: rat brain homogenates
Sequence (P97612 1-579): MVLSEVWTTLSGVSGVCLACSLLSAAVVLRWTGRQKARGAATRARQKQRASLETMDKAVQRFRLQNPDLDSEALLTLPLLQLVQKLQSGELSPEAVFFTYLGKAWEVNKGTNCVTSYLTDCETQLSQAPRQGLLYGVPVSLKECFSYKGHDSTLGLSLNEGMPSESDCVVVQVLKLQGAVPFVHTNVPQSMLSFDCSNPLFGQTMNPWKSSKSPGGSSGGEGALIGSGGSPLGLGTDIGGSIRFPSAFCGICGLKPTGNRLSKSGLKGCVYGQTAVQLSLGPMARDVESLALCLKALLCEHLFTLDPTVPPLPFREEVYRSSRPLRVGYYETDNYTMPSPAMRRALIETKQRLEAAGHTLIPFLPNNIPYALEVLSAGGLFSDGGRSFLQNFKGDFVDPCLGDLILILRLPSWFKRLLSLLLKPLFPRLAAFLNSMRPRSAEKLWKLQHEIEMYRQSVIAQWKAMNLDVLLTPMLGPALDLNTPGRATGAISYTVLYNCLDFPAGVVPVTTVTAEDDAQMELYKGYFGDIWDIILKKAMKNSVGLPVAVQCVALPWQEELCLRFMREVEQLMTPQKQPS
Experiment: [3H]AEA hydrolysis in rat brain homogenates
Format: biochemical
Settings: current authors, unpublished data; read-out: IC50 inhibition of [3H]AEA hydrolysis in rat brain homogenates

[
  {
    "compound": "Cc1cccnc1NC(=O)[C@@H](C)c1ccc(-c2ccccc2)c(F)c1 [(S)-Flu-AM1]",
    "assayed.target": "rat brain FAAH (Rattus norvegicus, UniProt P97612)",
    "IC50 / µM": 0.99
  },
  {
    "compound": "Cc1cccnc1NC(=O)[C@H](C)c1ccc(-c2ccccc2)c(F)c1 [(R)-Flu-AM1]",
    "assayed.target": "rat brain FAAH (Rattus norvegicus, UniProt P97612)",
    "IC50 / µM": 0.74
  }
]
